Entries annotated with measured glycan array binding signal (z-score)
Molecular target: GalNAc3S(b1-4)GlcNAc3S
Test: glycan array binding signal (z-score within array); higher = stronger binding
Details: glycan notation: IUPAC condensed, linker removed
The entries come from a sample that favours the strongest signals as a whole.
Give only the figure.

Recorded glycan array binding signal (z-score), per entry:
BINDER: XTP3-B-MRH1 (Homo sapiens), Q96DZ1 (protein) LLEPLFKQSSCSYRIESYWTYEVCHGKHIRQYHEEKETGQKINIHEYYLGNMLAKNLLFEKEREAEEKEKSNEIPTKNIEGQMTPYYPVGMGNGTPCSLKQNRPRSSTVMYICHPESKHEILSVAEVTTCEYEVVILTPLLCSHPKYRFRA
REPORTED: 3.07

BINDER: RsaA-N-term (Caulobacter crescentus), P35828 (protein) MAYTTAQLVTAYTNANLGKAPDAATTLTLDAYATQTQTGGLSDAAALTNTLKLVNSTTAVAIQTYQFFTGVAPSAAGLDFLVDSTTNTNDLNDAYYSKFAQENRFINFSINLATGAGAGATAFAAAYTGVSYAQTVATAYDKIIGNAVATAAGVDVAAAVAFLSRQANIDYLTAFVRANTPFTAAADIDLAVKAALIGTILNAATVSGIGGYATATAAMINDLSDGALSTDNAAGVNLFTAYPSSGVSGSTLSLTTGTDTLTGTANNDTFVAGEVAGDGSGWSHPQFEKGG
REPORTED: 0.081

Alright, here's another binder for you.
Q) Report glycan array binding signal (z-score) for LBL-152 (Laetiporus bicolor), B0D650 (protein) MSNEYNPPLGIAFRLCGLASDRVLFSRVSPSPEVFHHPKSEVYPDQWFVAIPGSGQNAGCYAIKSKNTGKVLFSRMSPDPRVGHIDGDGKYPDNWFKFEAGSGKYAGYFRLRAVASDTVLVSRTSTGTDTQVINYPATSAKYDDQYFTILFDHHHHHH please.
A) -0.163
